Some compounds, each annotated with its measured Cmax.
Assay: Pharmacokinetic evaluation in rats
Format: in vivo
Settings: male, plasma, po; rat, p.o. 10 mg/kg
Reply numerically in ng/mL, unit not repeated.

In [3]: df
Out[3]:
                                   compound  readout_label  recorded_number
0  CP(C)(=O)c1cc2c(Nc3ccc4scnc4c3)ccnc2cc1OC(F)(F)F [A24]           Cmax            20400

Below: the item to evaluate.
// COc1cc2nccc(Nc3ccc4scnc4c3)c2cc1P(C)(C)=O [A6] : Cmax value = 3320

---

Assay: Pharmacokinetic evaluation in mice
Type: in vivo
Settings: male, mouse, plasma, iv, i.v. 2 mg/kg
READOUT LABEL: Vd (L/kg)
Reply numerically in L/kg, unit not repeated.

Examples from the recorded data:
                  compound_structure_string  recorded_number
0  CP(C)(=O)c1cc2c(Nc3ccc4scnc4c3)ccnc2cc1OC(F)F             0.59
1  CP(C)(=O)c1cc2c(Nc3ccc4scnc4c3)ccnc2cc1OC(F)(F)F             0.27

Below: the item to evaluate.
// "COc1cc2nccc(Nc3ccc4scnc4c3)c2cc1P(C)(C)=O" : Vd value = 1.1

---

Test: Metabolic stability test, DLM
Assay type: in vitro ADME
Settings: dog, liver microsomes, pH 7.4, read-out: Cl (mL/min/kg) DLM
READOUT LABEL: CLint scaled at 1 μM (mL/min/kg)
Reply numerically in mL/min/kg, unit not repeated.

>>> df
                                   molecule  recorded_number
0  COc1cc2nccc(Nc3ccc4scnc4c3)c2cc1P(C)(C)=O [A6]             5.21
1  CP(C)(=O)c1cc2c(Nc3ccc4scnc4c3)ccnc2cc1-c1cnn(C2CCNCC2)c1 [A13]             17.4
2  CP(C)(=O)c1cc2c(Nc3ccc4scnc4c3)ccnc2cc1OCCO [A7]             2.58

// COCCOc1cc2nccc(Nc3ccc4scnc4c3)c2cc1P(C)(C)=O [A8] : CLint scaled at 1 μM value = 13.7

// CP(C)(=O)c1cc2c(Nc3ccc4scnc4c3)ccnc2cc1O[C@@H]1CCOC1 [A15] : CLint scaled at 1 μM value = 4.16

// CC1(COc2cc3nccc(Nc4ccc5scnc5c4)c3cc2P(C)(C)=O)COC1 [A9] : CLint scaled at 1 μM value = 30.1

// CP(C)(=O)c1cc2c(Nc3ccc4scnc4c3)ccnc2cc1O[C@H]1CCOC1 [A14] : CLint scaled at 1 μM value = 5.58

---

Experiment: Pharmacokinetic evaluation in beagle dog
Assay type: in vivo
Conditions: plasma, po, p.o. 30 mg/kg
READOUT LABEL: Cmax (ng/mL)
Reply numerically in ng/mL, unit not repeated.

// "COc1cc2nccc(Nc3ccc4scnc4c3)c2cc1P(C)(C)=O" : Cmax value = 8630

---

Assay: Caco-2 permeability test
Type: in vitro ADME
Conditions: human, Caco-2, pH 7.4; B-A
Lab note: compare Papp B→A at 90 min with 30 ×10⁻⁶ cm/s, writing Condition met if less and Condition not met if equal or more.

Worked examples, 4 compounds total:
>>> print(df.to_string())
                                   compound              group
0  COCCOc1cc2nccc(Nc3ccc4scnc4c3)c2cc1P(C)(C)=O [A8]  Condition not met
1  CC1(COc2cc3nccc(Nc4ccc5scnc5c4)c3cc2P(C)(C)=O)COC1 [A9]  Condition not met
2  CP(C)(=O)c1cc2c(Nc3ccc4scnc4c3)ccnc2cc1O[C@@H]1CCOC1 [A15]  Condition not met
3  CP(C)(=O)c1cc2c(Nc3ccc4scnc4c3)ccnc2cc1OCCO [A7]      Condition met

Now, please, on to the next compound.
In plain terms, does CP(C)(=O)c1cc2c(Nc3ccc4scnc4c3)ccnc2cc1OC1COC1 [A16] come in under 30 ×10⁻⁶ cm/s for Papp B→A at 90 min? Condition not met

---

Assay: Pharmacokinetic evaluation in beagle dog
Assay type: in vivo
Conditions: plasma, iv, i.v. 1 mg/kg
READOUT LABEL: clearance (mL/min/kg)
Reply numerically in mL/min/kg, unit not repeated.

                                   compound  recorded_number
0  COc1cc2nccc(Nc3ccc4scnc4c3)c2cc1P(C)(C)=O [A6]              9.5

Below: the item to evaluate.
// CP(C)(=O)c1cc2c(Nc3ccc4scnc4c3)ccnc2cc1OC(F)(F)F [A24] : clearance value = 4.3

---

Test: Pharmacokinetic evaluation in rats
Assay type: in vivo
Details: male, plasma, iv; rat, i.v. 2 mg/kg
Some compounds, each annotated with its measured half-life.
Reply numerically in h, unit not repeated.

>>> df
                  compound_structure_string  recorded_number
0  CP(C)(=O)c1cc2c(Nc3ccc4scnc4c3)ccnc2cc1OC(F)(F)F               18

// "COc1cc2nccc(Nc3ccc4scnc4c3)c2cc1P(C)(C)=O" : half-life value = 1.7

---

Some molecules, each annotated with its measured Tmax.
Test: Pharmacokinetic evaluation in mice
Type: in vivo
Conditions: male, mouse, plasma, po, p.o. 10 mg/kg
Reply numerically in min, unit not repeated.

Examples from the recorded data:
In [3]: df
Out[3]:
                  compound_structure_string  recorded_number
0  COc1cc2nccc(Nc3ccc4scnc4c3)c2cc1P(C)(C)=O               30
1  CP(C)(=O)c1cc2c(Nc3ccc4scnc4c3)ccnc2cc1OC(F)(F)F               48

// "CP(C)(=O)c1cc2c(Nc3ccc4scnc4c3)ccnc2cc1OC(F)F" : Tmax value = 42

---

Some compounds, each annotated with its measured half-life at 1 μM.
Assay: Metabolic stability test, HLM
Format: in vitro ADME
Conditions: human, liver microsomes, pH 7.4, read-out: T1/2 (min) HLM
Reply numerically in min, unit not repeated.

In [3]: df
Out[3]:
                  compound_structure_string      readout_label  recorded_number
0  CP(C)(=O)c1cc2c(Nc3ccc4scnc4c3)ccnc2cc1OC1COC1  half-life at 1 μM              174
1  CC1(COc2cc3nccc(Nc4ccc5scnc5c4)c3cc2P(C)(C)=O)COC1  half-life at 1 μM               52

// "CP(C)(=O)c1cc2c(Nc3ccc4scnc4c3)ccnc2cc1O[C@@H]1CCOC1" : half-life at 1 μM value = 88.6

// "CP(C)(=O)c1cc2c(Nc3ccc4scnc4c3)ccnc2cc1-c1cnn(C2CCNCC2)c1" : half-life at 1 μM value = 2520

// "COCCOc1cc2nccc(Nc3ccc4scnc4c3)c2cc1P(C)(C)=O" : half-life at 1 μM value = 109

// "CP(C)(=O)c1cc2c(Nc3ccc4scnc4c3)ccnc2cc1O[C@H]1CCOC1" : half-life at 1 μM value = 75.8

// "COc1cc2nccc(Nc3ccc4scnc4c3)c2cc1P(C)(C)=O" : half-life at 1 μM value = 586

// "CP(C)(=O)c1cc2c(Nc3ccc4scnc4c3)ccnc2cc1OCCO" : half-life at 1 μM value = 421

---

Experiment: Metabolic stability test, DLM
Format: in vitro ADME
Conditions: dog, liver microsomes, pH 7.4, read-out: T1/2 (min) DLM
Some compounds, each annotated with its measured log10 half-life at 1 μM.
# values: log10(half-life at 1 μM), units min

// COc1cc2nccc(Nc3ccc4scnc4c3)c2cc1P(C)(C)=O [A6] : log10 half-life at 1 μM value = 2.82

// CP(C)(=O)c1cc2c(Nc3ccc4scnc4c3)ccnc2cc1-c1cnn(C2CCNCC2)c1 [A13] : log10 half-life at 1 μM value = 2.30

// COCCOc1cc2nccc(Nc3ccc4scnc4c3)c2cc1P(C)(C)=O [A8] : log10 half-life at 1 μM value = 2.40

// CP(C)(=O)c1cc2c(Nc3ccc4scnc4c3)ccnc2cc1O[C@H]1CCOC1 [A14] : log10 half-life at 1 μM value = 2.79

// CC1(COc2cc3nccc(Nc4ccc5scnc5c4)c3cc2P(C)(C)=O)COC1 [A9] : log10 half-life at 1 μM value = 2.06

// CP(C)(=O)c1cc2c(Nc3ccc4scnc4c3)ccnc2cc1OCCO [A7] : log10 half-life at 1 μM value = 3.13

// CP(C)(=O)c1cc2c(Nc3ccc4scnc4c3)ccnc2cc1O[C@@H]1CCOC1 [A15] : log10 half-life at 1 μM value = 2.92

---

Test: Pharmacokinetic evaluation in beagle dog
Type: in vivo
Settings: plasma, iv, i.v. 1 mg/kg
Some compounds, each annotated with its measured Vd.
Reply numerically in L/kg, unit not repeated.

                  compound_structure_string  readout_label  recorded_number
0  CP(C)(=O)c1cc2c(Nc3ccc4scnc4c3)ccnc2cc1OC(F)(F)F             Vd              0.7

// "COc1cc2nccc(Nc3ccc4scnc4c3)c2cc1P(C)(C)=O" : Vd value = 1.7

Where these numbers come from: patent US20240190904A1
